// provenance: ChEMBL document CHEMBL3433997

# Target Of Assay: Solute carrier family 2, facilitated glucose transporter member 1 (Homo sapiens)
# Method Description: ST_JUDE_LEISH: Cytotoxicity at 2uM final concentration against transgenic Leishmania Mexicana promastigotes LmGLUT1 that are glucose transport deficient and complemented with the human glucose transporter GLUT1. Activity is measured by DNA content using SYBR green in vitro
# Format: functional
Kindly note that classification relies on inhibition with these boundaries: lower level = under 1%, middle level = from 1% up to 6%, upper level = 6% and over

[[record]]
molecule = "CC(C)CNC(=S)N1CCCN(c2nc3ccc(Cl)cc3s2)CC1"
assigned_label = "middle level"

[[record]]
molecule = "CN1CCCC(CN2CCN(Cc3ccc(-c4ccc(-c5nc6cc(F)ccc6[nH]5)cc4)cc3)CC2)C1 (centres undefined)"
assigned_label = "middle level"

[[record]]
molecule = "CCNc1cc(C(=O)N[C@@H](Cc2ccccc2)[C@H](O)CNCc2cc(C#N)ccc2OC)cc(N2CCCC2=O)c1"
assigned_label = "upper level"

[[record]]
molecule = "CCOc1ccc2[nH]c(-c3ccccc3)cc(=NN=Cc3ccncc3)c2c1"
assigned_label = "middle level"

[[record]]
molecule = "Oc1cc(NCCCNC2CCc3c(Cl)cc(Cl)cc32)nc2ccccc12 (centres undefined)"
assigned_label = "lower level"

[[record]]
molecule = "COc1cc(Nc2nccc(N3CCC(NC(=O)c4cccc(C#N)c4)C3)n2)cc(OC)c1OC (centres undefined)"
assigned_label = "middle level"

[[record]]
molecule = "Cc1nc(-c2ccc3c(c2)CCN(CCC2CCC(NC(=O)c4cc5cccc(Cl)c5[nH]4)CC2)CC3)no1 (centres undefined)"
assigned_label = "lower level"

[[record]]
molecule = "NC(CC1CC(=O)N1CC(=O)O)C(=O)O (centres undefined)"
assigned_label = "upper level"

